subject.of.test: Adrenergic receptor alpha-2 (Rattus norvegicus, UniProt P22086+P19328+P22909)
experiment: Binding affinity towards alpha-2 adrenergic receptor in rat using [3H]rauwolscine as radioligand
Flag rule - Ki less than 0.7 µM flags 1 (yes); the remaining entries get 0 (no).

Lab log: compare recorded Ki with 0.7 µM; is it strictly lower for NCC1CCCCc2c1ccc(O)c2O (centres undefined) ?
0 (no)

Let us now turn to CCNCC1CCCc2c1ccc(O)c2O (centres undefined)
1 (yes)

And for CN(C)CC1CCCc2c1ccc(O)c2O (centres undefined) ?
1 (yes)

Similarly, NCC1Cc2cc(O)c(O)cc21 (centres undefined) ?
1 (yes)

# iterate: CCCN(CCC)CC1CCc2c1ccc(O)c2O (centres undefined)
1 (yes)

Proceed to CC(C)NCC1CCc2c1ccc(O)c2O (centres undefined)
1 (yes)

Same for NCC1Cc2c1ccc(O)c2O (centres undefined)
1 (yes)

Param item: CNCC1CCc2c1ccc(O)c2O (centres undefined)
1 (yes)

* * *

subject.of.test: Adrenergic receptor alpha-2 (Rattus norvegicus, UniProt P22086+P19328+P22909)
experiment: Binding affinity towards alpha-2 adrenergic receptor in rat using [3H]rauwolscine as radioligand
Flag rule - Ki less than 1000 nM flags class 1; the remaining entries get class 0.

Some solved cases for reference:
compound | subject.of.test | qualitative.label
CNCC1CCCc2c1ccc(O)c2O (stereo unspecified) | Adrenergic receptor alpha-2 (Rattus norvegicus, UniProt P22086+P19328+P22909) | class 1
NCC1CCCc2c1ccc(O)c2O (stereo unspecified) | Adrenergic receptor alpha-2 (Rattus norvegicus, UniProt P22086+P19328+P22909) | class 1

Threshold test, Ki < 1000 nM: CC(C)NCC1CCCc2cc(O)c(O)cc21 (stereo unspecified)
class 0

// query: CCN(CC)CC1CCc2c1ccc(O)c2O (stereo unspecified)
class 1

Again, but for CC(C)NCC1CCc2cc(O)c(O)cc21 (stereo unspecified)
class 0

And the next one, CCCN(CCC)CC1CCc2cc(O)c(O)cc21 (stereo unspecified) ?
class 1

Ok, now NCC1CCCc2cc(O)c(O)cc21 (stereo unspecified)
class 0

* * *

subject.of.test: Adrenergic receptor alpha-2 (Rattus norvegicus, UniProt P22086+P19328+P22909)
Sequence (P22086 whole entry): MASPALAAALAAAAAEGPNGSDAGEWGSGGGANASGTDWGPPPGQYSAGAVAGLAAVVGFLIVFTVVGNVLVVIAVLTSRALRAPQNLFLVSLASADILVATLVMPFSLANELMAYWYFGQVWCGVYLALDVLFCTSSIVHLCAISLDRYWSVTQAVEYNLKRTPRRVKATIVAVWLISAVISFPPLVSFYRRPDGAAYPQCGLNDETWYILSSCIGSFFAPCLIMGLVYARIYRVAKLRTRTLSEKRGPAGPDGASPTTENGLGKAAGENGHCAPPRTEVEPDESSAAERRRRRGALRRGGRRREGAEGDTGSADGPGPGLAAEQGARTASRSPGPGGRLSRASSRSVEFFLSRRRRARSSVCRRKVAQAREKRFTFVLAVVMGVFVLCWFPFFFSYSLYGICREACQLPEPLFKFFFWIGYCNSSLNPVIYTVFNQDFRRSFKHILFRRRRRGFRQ
Sequence (P19328 whole entry): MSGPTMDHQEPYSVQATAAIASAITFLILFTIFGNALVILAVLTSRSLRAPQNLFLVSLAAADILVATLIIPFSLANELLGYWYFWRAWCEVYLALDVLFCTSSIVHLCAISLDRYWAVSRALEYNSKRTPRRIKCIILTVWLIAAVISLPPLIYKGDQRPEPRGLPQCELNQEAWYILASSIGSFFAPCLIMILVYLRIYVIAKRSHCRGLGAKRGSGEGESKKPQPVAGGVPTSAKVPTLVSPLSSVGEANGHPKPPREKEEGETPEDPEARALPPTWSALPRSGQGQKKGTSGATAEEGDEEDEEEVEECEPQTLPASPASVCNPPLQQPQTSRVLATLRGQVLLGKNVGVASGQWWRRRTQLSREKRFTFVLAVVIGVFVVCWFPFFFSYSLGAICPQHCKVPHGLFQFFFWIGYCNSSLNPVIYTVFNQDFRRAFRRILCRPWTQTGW
Sequence (P22909 whole entry): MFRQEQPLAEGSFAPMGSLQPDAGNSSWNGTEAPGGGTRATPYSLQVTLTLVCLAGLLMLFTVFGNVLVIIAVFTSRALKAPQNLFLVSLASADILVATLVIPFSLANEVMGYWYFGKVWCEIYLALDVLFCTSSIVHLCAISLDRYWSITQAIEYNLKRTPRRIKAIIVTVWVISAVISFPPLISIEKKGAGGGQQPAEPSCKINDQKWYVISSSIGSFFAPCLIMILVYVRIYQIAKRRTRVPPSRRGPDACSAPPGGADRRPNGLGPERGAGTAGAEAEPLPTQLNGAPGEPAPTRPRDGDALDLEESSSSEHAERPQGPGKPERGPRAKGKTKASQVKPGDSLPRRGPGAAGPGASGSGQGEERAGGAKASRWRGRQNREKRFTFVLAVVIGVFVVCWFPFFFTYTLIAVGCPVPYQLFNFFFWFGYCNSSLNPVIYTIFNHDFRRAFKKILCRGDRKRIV
experiment: Binding affinity towards alpha-2 adrenergic receptor in rat using [3H]rauwolscine as radioligand
Ki under 700 nM gets true (1), anything at or over 700 nM gets false (0).

See these solved cases before continuing.
compound | qualitative.label
CN(C)CC1CCc2c1ccc(O)c2O (centres undefined) | true (1)
CCCN(CCC)CC1CCCc2c1ccc(O)c2O (centres undefined) | true (1)
NCC1CCCCc2cc(O)c(O)cc21 (centres undefined) | false (0)
CN(C)CC1Cc2c1ccc(O)c2O (centres undefined) | true (1)
CCN(CC)CC1CCCc2c1ccc(O)c2O (centres undefined) | true (1)

Lab note: confirm whether the reported Ki for this compound is below 700 nM, equality not counting. compound: CCNCC1CCc2c1ccc(O)c2O (centres undefined)
true (1)

// same read-out, input: NCC(O)c1ccc(O)c(O)c1F (centres undefined)
false (0)

Now the compound NCC1CCc2cc(O)c(O)cc21 (centres undefined)
true (1)

Same question, CN(C)CC1CCc2cc(O)c(O)cc21 (centres undefined) this time
false (0)

Now give it for CNCC1CCCc2cc(O)c(O)cc21 (centres undefined) too.
false (0)

Next: NCC1CCc2c1ccc(O)c2O (centres undefined)
true (1)

Entry CC(C)NCC1CCCc2c1ccc(O)c2O (centres undefined) please
false (0)

Same lookup for CCCN(CCC)CC1CCCc2cc(O)c(O)cc21 (centres undefined) , please.
true (1)

The reported measurements were obtained from ChEMBL document CHEMBL1122942.
